# Lookup of reported clonogenic survival of UMSCC1 cells (Survival Fraction), peptide delivered with Chariot keyed by entry
# measured-target: Heat Shock Protein 90 (HSP90), endogenous, in human cell lines (human, UniProt P07900 2-732)
# measurement-protocol: cell-based or functional assay
Ends that are not written are not given here.
assay-metric: clonogenic survival of UMSCC1 cells (Survival Fraction), peptide delivered with Chariot (survival fraction)

1. SVDNPHVC (not fully specified) [Peptide 2 SVDNPHVC (Disruptin)]	0.77
2. NHVPSDVC (not fully specified) [Peptide 8 NHVPSDVC (scrambled peptide)]	1
3. GVGSPYVS [Peptide 4 GVGSPYVS]	1
4. DEAYVMAGVGSPYVSRLLGIC [Peptide 6 DEAYVMAGVGSPYVSRLLGIC]	1
